test system: CCRF-CEM leukemia; assay: NCI-60 one-dose screen, 48 h (100 = growth as untreated, 0 = no growth, -100 = all killed); conditions: 10 µM
This is part of a sample that, as a whole, favours compounds with a hit. Of some 83,000 tested, about 20% had one in any assay.
growth vs 60%: at or above is Criterion met, below is Criterion not met.

{"columns": ["molecule", "target.system", "assigned.label"],
 "data": [
  ["Cc1cc(C(C#N)c2ccc(Cl)cc2)c(Cl)cc1NC(=O)c1cc(I)cc(I)c1O (stereo not given)", "CCRF-CEM leukemia", "Criterion not met"],
  ["O=C(COc1cccc(/C=C2\\CSc3ccccc3C2=O)c1)c1ccc(Cl)cc1", "CCRF-CEM leukemia", "Criterion not met"],
  ["COc1ccc(/C=c2\\sc3n(c2=O)C(c2cc(OC)c(OC)c(OC)c2)C=C(c2ccc(OC)c(OC)c2)N=3)cc1OC (stereo not given)", "CCRF-CEM leukemia", "Criterion met"],
  ["CCOC(=O)CN(c1sc(C)c(C)c1C(=O)OCC)S(=O)(=O)c1ccc(C)cc1", "CCRF-CEM leukemia", "Criterion met"],
  ["COc1cc(/C=C2\\CCCC3C2=Nc2ccccc2NC3c2cc(OC)c(OC)c(OC)c2)cc(OC)c1OC (stereo not given)", "CCRF-CEM leukemia", "Criterion not met"],
  ["CCn1c(CSc2nc3ccccc3c(=O)n2CCc2ccccc2)n[nH]c1=S", "CCRF-CEM leukemia", "Criterion met"],
  ["CCOC(=O)CC(S(=O)(=O)c1ccccc1)S(=O)(=O)c1ccccc1", "CCRF-CEM leukemia", "Criterion met"],
  ["CN1CCN(CCCn2c(=O)c3sc4ncccc4c3n3nnc(-c4ccccc4)c23)CC1", "CCRF-CEM leukemia", "Criterion not met"],
  ["O=C1/C=C/[C@@H](O)[C@@H]2C[C@@H](O)C[C@H]2/C=C/CCC[C@H](C(F)(F)F)O1", "CCRF-CEM leukemia", "Criterion not met"],
  ["C[N+]1(CCCCC[N+]2(C)CCCC2)CCCC1", "CCRF-CEM leukemia", "Criterion met"],
  ["COc1cc(-c2nn(-c3cccc(NC(=O)CCN4CCN(Cc5ccccc5)CC4)c3)cc2-c2ccncc2)ccc1Cl", "CCRF-CEM leukemia", "Criterion not met"],
  ["CN(C)c1ccc(/C=N/NC(=O)c2ccccc2Nc2cccc(C(F)(F)F)c2)cc1", "CCRF-CEM leukemia", "Criterion not met"],
  ["CCOC(=O)C1C(C(=O)OCC)C2C(=O)C3C(C(=O)OCC)C(C(=O)OCC)C3C(=O)C12 (stereo not given)", "CCRF-CEM leukemia", "Criterion met"],
  ["COc1ccc(/C(C#N)=C/c2ccccc2OC)cc1", "CCRF-CEM leukemia", "Criterion not met"],
  ["CCN(CC)CCCC(Nc1c2ccc(Cl)cc2nc2ccc(OC)cc12)c1ccc(F)cc1 (stereo not given)", "CCRF-CEM leukemia", "Criterion not met"],
  ["Cc1cc(SC#N)cc(C(C)(C)C)c1O", "CCRF-CEM leukemia", "Criterion met"],
  ["O=C(Nc1nc(-c2ccccc2)nc2c1sc(=S)n2-c1ccccc1)C(F)(F)F", "CCRF-CEM leukemia", "Criterion met"],
  ["COc1ccc(C(=O)N/N=C/c2cc(C(F)(F)F)ccc2Cl)cc1", "CCRF-CEM leukemia", "Criterion met"],
  ["Cc1cc(O)ccc1C1=NN(c2ccc(S(C)(=O)=O)cc2)C(=O)CC1", "CCRF-CEM leukemia", "Criterion met"],
  ["COc1ccc2nc3cc(Cl)ccc3c(NCCCNCCO)c2c1", "CCRF-CEM leukemia", "Criterion not met"]
]}
